Where do the numbers come from? From patent US20240358849A1.

molecular target: T1, human interleukin-2 (IL-2), wild type (human, UniProt P60568 21-153, biotinylated when immobilized); test: BLI; Table 11 (N.B. = no detectable binding)
T1 construct: also called biotinylated IL-2; IL2 WT
T1 sequence (P60568 21-153): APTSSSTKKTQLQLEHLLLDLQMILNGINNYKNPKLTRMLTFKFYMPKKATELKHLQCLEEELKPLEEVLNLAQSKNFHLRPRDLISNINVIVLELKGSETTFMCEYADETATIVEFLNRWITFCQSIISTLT
measured property: binding result

binder	measured property	result
anti-FAP antibody 872-5 (antibody, V domains shown, monovalent Fab-Fc (knob-in-hole) for KD per 6.1.3; also called IgG 5; FAP5) VH: EVQLVESGGGLVQPGGSLRLSCAASGFTFRGYIMSWVRQAPGKGLEWVSWISPEGSRTGYADSVKGRFTISRDNSKNTLYLQMNSLRAEDTAVYYCARLQYGTWFDYWGQGTLVTVSS VL: DIQMTQSPSSLSASVGDRVTITCRASQSISSYLNWYQQKPGKAPKLLIYAASSLQSGVPSRFSGSGSGTDFTLTISSLQPEDFATYYCQQATLLLPTFGQGTKVEIKR	binding result	no binding
anti-FAP antibody 872-70 (antibody, V domains shown, also called IgG 70; FAP70) VH: EVQLVESGGGLVQPGGSLRLSCAASGFTFSRYSMSWVRQAPGKGLEWVSYITSTDGTTDYADSVKGRFTISRDNSKNTLYLQMNSLRAEDTAVYYCARSQYGRYYSPDYYFDYWGQGTLVTVSS VL: DIQMTQSPSSLSASVGDRVTITCRASQSISSYLNWYQQKPGKAPKLLIYAASSLQSGVPSRFSGSGSGTDFTLTISSLQPEDFATYYCQQSRTSPYTFGQGTKVEIKR	binding result	no binding
single domain anti-FAP antibody VHH6 (VHH) VHH: EVQLVESGGGLVQPGGSLRLSCAASGFTFTPTYMYWVRQAPGKGLEWVSAIDPYGRTEYPDSVKGRFTISRDNAKNTLYLQMNSLRPEDTAVYYCAVRVPPGVYTYYRTGPYDYWGQGTLVTVSS	binding result	no binding
anti-FAP antibody 872-59 (antibody, V domains shown, also called IgG 59; FAP59) VH: EVQLVESGGGLVQPGGSLRLSCAASGFTFTSYAMSWVRQAPGKGLEWVSSIYSWYGTTSYADSVKGRFTISRDNSKNTLYLQMNSLRAEDTAVYYCARTISYSQYAYGYSFDYWGQGTLVTVSS VL: DIQMTQSPSSLSASVGDRVTITCRASQSISSYLNWYQQKPGKAPKLLIYAASSLQSGVPSRFSGSGSGTDFTLTISSLQPEDFATYYCQQAFTSPRTFGQGTKVEIKR	binding result	no binding
